Entries annotated with measured T/C
Tested on: P388 leukemia ip, CD2F1 mice, survival T/C
Assay: NCI In Vivo Anticancer Drug Screen. Data for tumor model P388 Leukemia (intraperitoneal) in CD2F1 (CDF1) mice
Conditions: endpoint: median survival time; dose: 60.0 mg/kg/injection; schedule: Q01DX005 (ip); vehicle: Klucel (hydroxypropylcellulose) (HPC); higher = longer survival
Toxic doses and inconclusive results are not listed.
measure: T/C

molecule: C/C(CC1C(CCO)C1(C)C)=N\NC(N)=O (configuration not stated)
measure: T/C
measValue: 98 % of control
//
molecule: O=c1[nH]c2cc([N+](=O)[O-])ccc2nc1/C=C(\O)c1cccnc1
measure: T/C
measValue: 94 % of control
//
molecule: NC/C(=N\O)c1ccc2ccccc2c1
measure: T/C
measValue: 100 % of control
//
molecule: CCC[CH2][Sn]([CH2]CCC)([S]CCS(=O)(=O)O)[S]CCS(=O)(=O)O (tested in a mixture with another compound)
measure: T/C
measValue: 105 % of control
//
molecule: Cc1cc(NC(=O)COCC(=O)O)no1
measure: T/C
measValue: 101 % of control
//
molecule: CC12CCCC([N+](=O)[O-])(C1)NC(=O)C2C#N (configuration not stated)
measure: T/C
measValue: 108 % of control
//
molecule: CCOc1ccccc1N=Nc1c(C)nc(N)nc1OCC
measure: T/C
measValue: 100 % of control
//
molecule: O=C1C2=C(Nc3cc([N+](=O)[O-])ccc3N2)OC1c1cccc([N+](=O)[O-])c1 (configuration not stated)
measure: T/C
measValue: 97 % of control
//
molecule: C=C1C(=O)OC2C(OC(C)=O)CCCC12 (configuration not stated)
measure: T/C
measValue: 112 % of control
//
molecule: O=C(NC1COB(c2cccc([N+](=O)[O-])c2)OC1c1ccc([N+](=O)[O-])cc1)C(Cl)Cl (configuration not stated)
measure: T/C
measValue: 98 % of control
//
molecule: O=c1c2ccccc2c2ccccc2c(=O)n1-c1cc2c3ccccc3ccc2c2ccccc12
measure: T/C
measValue: 100 % of control
//
molecule: FC(F)(F)c1nc(SCc2ccc(Cl)cc2)n[nH]1
measure: T/C
measValue: 96 % of control
//
molecule: CCCCCc1c(-c2n[nH]c(C)c2CCCCC)n[nH]c1C
measure: T/C
measValue: 92 % of control
//
molecule: CNC(=O)OCCC(OC(=O)NC)C1CCC2C3CCC4CC(OC(=O)c5ccccc5)CCC4(C)C3CCC12C (configuration not stated)
measure: T/C
measValue: 107 % of control
//
molecule: O=P1(Oc2ccc(N=C=S)cc2)OCCCO1
measure: T/C
measValue: 102 % of control
//
molecule: CCOC(=O)c1ccc(NC(=O)OCc2ccco2)cc1
measure: T/C
measValue: 89 % of control
//
molecule: C[O+]=c1ccc2ccc(-c3ccccc3)sc-2c1
measure: T/C
measValue: 106 % of control
//
molecule: O=C(O)c1cc2c3ccccc3sc2c2ccccc12
measure: T/C
measValue: 93 % of control
//
molecule: Cc1cc(Cl)ccc1NC(=O)N1CCCCC1
measure: T/C
measValue: 96 % of control
//
molecule: c1ccc2c(c1)Nc1ccc(CN3CCOCC3)cc1S2
measure: T/C
measValue: 104 % of control
//
molecule: CCC1(N(C)C)C(=O)NC(=O)N(C2CCCCC2)C1=O (configuration not stated)
measure: T/C
measValue: 98 % of control
//
molecule: Cc1cc2c(=O)cc(-c3ccc([N+](=O)[O-])cc3)oc2c(C#N)c1C
measure: T/C
measValue: 92 % of control
//
molecule: Cc1cc(O)c(C(=O)/C=C/c2ccnc3ccccc23)c(=O)o1
measure: T/C
measValue: 104 % of control
//
molecule: c1cnc(NC(Nc2ncccn2)C2CCCCC2)nc1
measure: T/C
measValue: 100 % of control
//
molecule: CCOC(=O)c1c(C)noc1NC
measure: T/C
measValue: 100 % of control
//
molecule: COC1(NS(=O)(=O)c2ccc(C)cc2)CC1
measure: T/C
measValue: 103 % of control
//
molecule: CCOc1cc2c(cc1Cc1cc(OC)c(OC)c(OC)c1)OCO2
measure: T/C
measValue: 91 % of control

----------
Test system: P388 leukemia ip, CD2F1 mice, survival T/C
Test: NCI In Vivo Anticancer Drug Screen. Data for tumor model P388 Leukemia (intraperitoneal) in CD2F1 (CDF1) mice
Conditions: endpoint: median survival time; dose: 200.0 mg/kg/injection; schedule: Q01DX009 (ip); vehicle: saline with Tween-80; higher = longer survival
Toxic doses and inconclusive results are not listed.
measure: T/C

compound: OC(CBr)C(O)C(O)C(O)CBr (configuration not stated)
measure: T/C
measValue: 113 % of control

compound: CCCCOc1ccc(OCc2ccc(C)cc2)cc1
measure: T/C
measValue: 91 % of control

compound: CC1(C(=O)O)CCCC2(C)C3=C(CCCC3)CCC12 (configuration not stated)
measure: T/C
measValue: 100 % of control

compound: CSC(=S)N/N=C(\C)c1cccs1
measure: T/C
measValue: 110 % of control

compound: Cc1ccc(NC(=O)Oc2cc(C)c(I)cc2C)cc1Cl
measure: T/C
measValue: 95 % of control

compound: O=C(CBr)Nc1c(Cl)cc(Br)cc1Br
measure: T/C
measValue: 113 % of control

compound: CCC(C)(CC)OC(N)=O
measure: T/C
measValue: 105 % of control

compound: COC(=O)CCCC(NC(=O)c1ccc([N+](=O)[O-])cc1)C(=O)OC (configuration not stated)
measure: T/C
measValue: 96 % of control

compound: Oc1ccccc1C=NCc1ccccc1
measure: T/C
measValue: 114 % of control

compound: COc1cccc(/C=N\O)c1
measure: T/C
measValue: 100 % of control

compound: COC1/C=C/OC2(C)Oc3c(C)c(O)c4c(O)c(c(/C=N/N5C(C)CN(Cc6cccc(O)c6)CC5C)c(O)c4c3C2=O)NC(=O)/C(C)=C\C=C\C(C)C(O)C(C)C(O)C(C)C(OC(C)=O)C1C (configuration not stated)
measure: T/C
measValue: 118 % of control

compound: COC(=O)CC(=O)c1ccc(OC(C)C)cc1
measure: T/C
measValue: 100 % of control

----------
System: P388 leukemia ip, CD2F1 mice, survival T/C
Assay: NCI In Vivo Anticancer Drug Screen. Data for tumor model P388 Leukemia (intraperitoneal) in CD2F1 (CDF1) mice
Conditions: endpoint: median survival time; dose: 100.0 mg/kg/injection; schedule: Q01DX009 (ip); vehicle: saline with Tween-80
Inconclusive results and toxic doses are left out. Rule for the calls: active = survival T/C of 150% or more; inactive = T/C below 125% in these data.
Outcome codes: class 1 = active, class 0 = inactive

compound: COC(=O)C12C(=O)C(C(=O)OC)(C(c3ccccc3)=C1c1ccccc1)C1OC(=O)OC12 (stereo unspecified)
measurementTarget: P388 leukemia ip, CD2F1 mice, survival T/C
groupLabel: class 0

compound: CCCCCCCC/C=C\CCCCCCCC(=O)OCCCCCCCCCCCCCCCCC
measurementTarget: P388 leukemia ip, CD2F1 mice, survival T/C
groupLabel: class 0

compound: COC(=S)NC(=O)c1ccc(F)cc1
measurementTarget: P388 leukemia ip, CD2F1 mice, survival T/C
groupLabel: class 0

compound: CS(=O)(=O)OCCN(CCOS(C)(=O)=O)c1ccc(C(=O)O)cc1
measurementTarget: P388 leukemia ip, CD2F1 mice, survival T/C
groupLabel: class 1

compound: O=C(CCl)N/N=C/c1ccccc1
measurementTarget: P388 leukemia ip, CD2F1 mice, survival T/C
groupLabel: class 0

compound: COc1cc(C(C)(C)C)cc(OC)c1C(O)(c1c(OC)cc(C(C)(C)C)cc1OC)c1c(OC)cc(C(C)(C)C)cc1OC
measurementTarget: P388 leukemia ip, CD2F1 mice, survival T/C
groupLabel: class 0

compound: NN1C(=O)CCC1=O
measurementTarget: P388 leukemia ip, CD2F1 mice, survival T/C
groupLabel: class 0

compound: CC(=O)OCC(O)CS(=O)c1ccc(C)cc1 (stereo unspecified)
measurementTarget: P388 leukemia ip, CD2F1 mice, survival T/C
groupLabel: class 0

compound: CC(C)NC(=O)OCc1c(COC(=O)NC(C)C)c(-c2ccc(Cl)c(Cl)c2)n2c1CCC2
measurementTarget: P388 leukemia ip, CD2F1 mice, survival T/C
groupLabel: class 1

compound: O=C(O)CN(CC(=O)O)Cc1cc2c(c(O)c1O)C(=O)c1ccccc1C2=O
measurementTarget: P388 leukemia ip, CD2F1 mice, survival T/C
groupLabel: class 0

compound: Cc1ccc(NC(=O)Oc2cc(C)c(I)cc2C)cc1Cl
measurementTarget: P388 leukemia ip, CD2F1 mice, survival T/C
groupLabel: class 0

----------
System: P388 leukemia ip, CD2F1 mice, survival T/C
Assay: NCI In Vivo Anticancer Drug Screen. Data for tumor model P388 Leukemia (intraperitoneal) in CD2F1 (CDF1) mice
Conditions: endpoint: median survival time; dose: 50.0 mg/kg/injection; schedule: Q01DX005 (ip); vehicle: saline with Tween-80
Inconclusive results and toxic doses are left out. The calls were made as follows: active = survival T/C of 150% or more; inactive = T/C below 125% in these data.
Outcome codes: active, inactive

compound: OC1(c2cc3ccccc3c3ccccc23)c2ccccc2-c2ccccc21
measurementTarget: P388 leukemia ip, CD2F1 mice, survival T/C
groupLabel: inactive

compound: CCOC(=O)Cn1cnc2sc3c(c2c1=O)CCCC3
measurementTarget: P388 leukemia ip, CD2F1 mice, survival T/C
groupLabel: inactive

compound: C/C(=N\NC(=S)N1CCC(c2ccccc2)CC1)c1ncccn1
measurementTarget: P388 leukemia ip, CD2F1 mice, survival T/C
groupLabel: active

compound: O=C(Nc1ccc(N=Nc2ccc(S(=O)(=O)O)cc2)cc1)c1ccc(N=Nc2c(S(=O)(=O)O)cc(O)c3c(NC(=O)c4ccccc4)cc(S(=O)(=O)O)cc23)cc1
measurementTarget: P388 leukemia ip, CD2F1 mice, survival T/C
groupLabel: inactive

compound: CCCN1CCc2c([nH]c3cc(OC)ccc23)C1C (stereo not drawn)
measurementTarget: P388 leukemia ip, CD2F1 mice, survival T/C
groupLabel: inactive

compound: C=C(C)C1(C(=O)OCC(Cl)(Cl)Cl)NC(=O)C(NC(=O)COc2ccccc2)=CO1 (stereo not drawn)
measurementTarget: P388 leukemia ip, CD2F1 mice, survival T/C
groupLabel: inactive

compound: c1cn2cnnc2n2cnnc12
measurementTarget: P388 leukemia ip, CD2F1 mice, survival T/C
groupLabel: inactive

compound: O=C(O)C(Cc1ccc(O)cc1)c1ccc(C(Cc2ccc(O)cc2)C(=O)O)cc1 (stereo not drawn)
measurementTarget: P388 leukemia ip, CD2F1 mice, survival T/C
groupLabel: inactive

compound: O=C1NCCCCCC1S(=O)c1ccccc1 (stereo not drawn)
measurementTarget: P388 leukemia ip, CD2F1 mice, survival T/C
groupLabel: inactive

compound: C=Cc1ccccc1NC(C(=O)O)c1ccccc1 (stereo not drawn)
measurementTarget: P388 leukemia ip, CD2F1 mice, survival T/C
groupLabel: inactive

compound: COC(=O)C1=COC(C)C2CN3CCc4c([nH]c5cc(OC)c(OC)cc45)C3CC12 (stereo not drawn)
measurementTarget: P388 leukemia ip, CD2F1 mice, survival T/C
groupLabel: inactive

compound: CCn1c2ccccc2c2cc(NC(=O)NC(=O)c3ccccc3)ccc21
measurementTarget: P388 leukemia ip, CD2F1 mice, survival T/C
groupLabel: inactive

compound: COC1(C)CNc2ccccc2C(=O)N1 (stereo not drawn)
measurementTarget: P388 leukemia ip, CD2F1 mice, survival T/C
groupLabel: inactive

compound: FC(F)(F)c1ccc(C(Nc2nncs2)Nc2nncs2)cc1
measurementTarget: P388 leukemia ip, CD2F1 mice, survival T/C
groupLabel: inactive

compound: O=C(CCCl)Nc1c(Cl)cccc1Cl
measurementTarget: P388 leukemia ip, CD2F1 mice, survival T/C
groupLabel: inactive

compound: CC(=O)/C(=C\c1ccccc1)C(=O)CCN(C)C
measurementTarget: P388 leukemia ip, CD2F1 mice, survival T/C
groupLabel: inactive

compound: Cn1c(CC(=O)O)csc1=S
measurementTarget: P388 leukemia ip, CD2F1 mice, survival T/C
groupLabel: inactive

compound: COc1cc2c(cc1OC)CN1CCc3cc(OC)c(OC)cc3C1C2 (stereo not drawn)
measurementTarget: P388 leukemia ip, CD2F1 mice, survival T/C
groupLabel: inactive

compound: CCOC(=O)N1C=CC=C(Br)C1C#N (stereo not drawn)
measurementTarget: P388 leukemia ip, CD2F1 mice, survival T/C
groupLabel: inactive

compound: CCOc1ccccc1NC(=O)CC(=O)N1N=C(C)C(N=Nc2ccccc2C(=O)O)C1=O (stereo not drawn)
measurementTarget: P388 leukemia ip, CD2F1 mice, survival T/C
groupLabel: inactive

compound: Cc1cc(C)nc(Nc2nnc(Nc3cc(C)cc(C)n3)c3ccccc23)c1
measurementTarget: P388 leukemia ip, CD2F1 mice, survival T/C
groupLabel: inactive

compound: S=C(NNc1nnc(-c2ccccc2)c(-c2ccccc2)n1)NC1CCCCC1
measurementTarget: P388 leukemia ip, CD2F1 mice, survival T/C
groupLabel: inactive

compound: Nc1ccc2nc3cc(Nc4ccccc4)c(=Nc4ccccc4)cc-3n(-c3ccccc3)c2c1
measurementTarget: P388 leukemia ip, CD2F1 mice, survival T/C
groupLabel: inactive
